- Test system: PC-3_[JPC-3] (Lung Adenocarcinoma)
- Experimental protocol: combination Emax (second highest fraction inhibited in the dose matrix, 72 h); higher = more inhibition; extreme values may be limits of the assay
Each entry below lists one item and its recorded combination Emax value.
# print the numeric value only

| Compound | Target or test system | Measured result |
| --- | --- | --- |
| C=CCn1c(=O)c2cnc(Nc3ccc(N4CCN(C)CC4)cc3)nc2n1-c1cccc(C(C)(C)O)n1 [AZD1775] + C1CN(CCC1(C(=O)N[C@@H](CCO)C2=CC=C(C=C2)Cl)N)C3=NC=NC4=C3C=CN4 [Capivasertib] (first compound max 3 µM, partner max 3 µM) | PC-3_[JPC-3] (Lung Adenocarcinoma) | 0.577 |

As a next step, examine the compound that follows.
The compound identified as COc1cccc(OCCCN)c1-c1cc(Nc2cnc(C#N)cn2)n[nH]1 [Prexasertib] + Cc1cc2ncnn2cc1Nc1ncc2c(n1)n(C1CCOCC1)c(=O)n2C [AZD7648] (first compound max 1 µM, 7x7, partner max 10 µM) registered its combination Emax at 0.324
